Tested on: ragweed (common ragweed, Ambrosia artemisiifolia)
Assay: Test C postemergence, visual plant response rating
Type: in vivo
Details: Postemergence, 31 g ai/ha
readoutKind: Ragweed plant response rating (0 to 100 scale)
Lab note: record the figure alone, no unit after it.

Previously resolved entries follow.
# compound, reading
records = [
    ("CO/N=C(/c1cc(Cl)cc(Br)c1)c1c(O)c(C)nn(C)c1=O", 90),
    ("CO/N=C(\\c1cc(F)cc(C)c1F)c1c(O)c(C)nn(C)c1=O", 70),
    ("CCON=C(c1cc(Cl)cc(Br)c1)c1c(O)c(C)nn(C)c1=O", 100),
    ("C#CCO/N=C(\\c1ccc(F)c(Br)c1)c1c(O)c(C)nn(C)c1=O", 20),
    ("CO/N=C(/c1c(O)c(C)nn(C)c1=O)c1cccc2cc(Cl)ccc12 [Compound 159]", 70),
    ("C#CCO/N=C(/c1ccc(F)c(Cl)c1)c1c(O)c(C)nn(C)c1=O", 10),
    ("CO/N=C(/c1cccc(Br)c1)c1c(O)c(C)nn(C)c1=O", 40),
    ("CON=C(c1cc(Cl)cc(Cl)c1Cl)c1c(O)c(C)nn(C)c1=O [Compound 213]", 70),
    ("CCO/N=C(/c1c(O)c(Cl)nn(C)c1=O)c1cc(Br)cc2ccccc12", 100),
    ("CO/N=C(\\c1cc(Cl)cc(Br)c1)c1c(O)c(C)nn(C)c1=O", 70),
]

Req: Item under review: Cc1nn(C)c(=O)c(/C(=N/OC(C)C)c2cc(Cl)cc(Cl)c2F)c1O . Reported Ragweed plant response rating (0 to 100 scale)?
Resp: 100

Req: Would you mind telling me what Ragweed plant response rating (0 to 100 scale) value was observed for Cc1nn(C)c(=O)c(/C(=N/OC(C)C)c2cccc3cc(Cl)ccc23)c1O ?
Resp: 20

Req: # Ragweed plant response rating (0 to 100 scale) lookup, item CON=C(c1cccc(OCC(F)(F)F)c1)c1c(O)c(C)nn(C)c1=O
Resp: 0

Req: Suppose we examine the compound CON=C(c1cc(Cl)cc(F)c1Cl)c1c(O)c(C)nn(C)c1=O ; what Ragweed plant response rating (0 to 100 scale) value has been reported?
Resp: 60

Req: For CON=C(c1ccc(F)c(Br)c1)c1c(O)c(C)nn(C)c1=O , what is its reported Ragweed plant response rating (0 to 100 scale)?
Resp: 20

====

Test system: kochia (Kochia scoparia)
Experiment: Test A postemergence, visual plant response rating
Format: in vivo
Settings: 500 g ai/ha, postemergence; 0 is no effect, 100 is complete control
Kochia plant response rating (0 to 100 scale) strictly less than 30 = Criterion met. Otherwise Criterion not met.

Req: Please let me know if CO/N=C(/c1ccccc1F)c1c(O)c(C)nn(C)c1=O shows Kochia plant response rating (0 to 100 scale) below 30.
Resp: Criterion met

Req: Please determine if CCO/N=C(\c1c(O)c(C)nn(C)c1=O)c1ccc(F)c2ccccc12 is below 30 in terms of Kochia plant response rating (0 to 100 scale).
Resp: Criterion not met

Req: Determine if CCO/N=C(\c1c(O)c(C)nn(C)c1=O)c1cccc2ccccc12 shows Kochia plant response rating (0 to 100 scale) strictly lower than 30.
Resp: Criterion not met

Req: # check: Kochia plant response rating (0 to 100 scale) < 30 for C=CCn1nc(C)c(O)c(C(=NOC)c2cccc(Cl)c2)c1=O (mixture of isomers)
Resp: Criterion met

Req: Please determine if CON=C(c1cc(Cl)ccc1C)c1c(O)c(C)nn(C)c1=O is below 30 in terms of Kochia plant response rating (0 to 100 scale).
Resp: Criterion not met

Req: Determine whether this compound shows Kochia plant response rating (0 to 100 scale) lower than 30 (ties excluded): CO/N=C(/c1c(O)c(C)nn(C)c1=O)c1cccc2ccccc12
Resp: Criterion not met

Req: API: query returns whether the compound falls strictly under 30 in Kochia plant response rating (0 to 100 scale). Query: CON=C(c1cccc(Cl)c1)c1c(O)c(C)nn(CC2CC2)c1=O (mixture of isomers)
Resp: Criterion met

Req: Is 30 strictly greater than the compound's reported Kochia plant response rating (0 to 100 scale)? compound: CON=C(c1cccc(C2CC2)c1)c1c(O)c(C)nn(C)c1=O
Resp: Criterion not met

====

Reported Pigweed plant response rating (0 to 100 scale) is given for each of the following compounds.
System: pigweed (Amaranthus retroflexus)
Experiment: Test C postemergence, visual plant response rating
Format: in vivo
Conditions: Postemergence, 31 g ai/ha
Lab note: jot down the number only; don't add units.

Recorded results for 8 compounds are shown here.
# compound, reading
data = [
    ("C#CCO/N=C(\\c1cccc(/C=C\\Cl)c1)c1c(O)c(C)nn(C)c1=O [Compound 264]", 40),
    ("CO/N=C(/c1cccc(/C=C/Cl)c1)c1c(O)c(C)nn(C)c1=O [Compound 285]", 0),
    ("CO/N=C(/c1cc(Cl)cc(Br)c1)c1c(O)c(C)nn(C)c1=O [Compound 156]", 70),
    ("C#CCO/N=C(\\c1cccc(Br)c1)c1c(O)c(C)nn(C)c1=O [Compound 278]", 30),
    ("Cc1nn(C)c(=O)c(/C(=N\\OC(C)C)c2cccc3cc(Cl)ccc23)c1O [Compound 241]", 80),
    ("CO/N=C(\\c1ccc(F)c(Cl)c1)c1c(O)c(C)nn(C)c1=O [Compound 219]", 20),
    ("CCO/N=C(\\c1c(O)cnn(C)c1=O)c1ccc(F)c2ccccc12 [Compound 269]", 50),
    ("CO/N=C(/c1cc(Cl)c(F)c(Cl)c1)c1c(O)c(C)nn(C)c1=O [Compound 289]", 0),
]

Req: // Pigweed plant response rating (0 to 100 scale) lookup, key: C#CCO/N=C(/c1ccc(F)c(Br)c1)c1c(O)c(C)nn(C)c1=O [Compound 163]
Resp: 40

Req: Quick one: Pigweed plant response rating (0 to 100 scale) for CC(C)O/N=C(\c1c(O)c(Cl)nn(C)c1=O)c1ccc(F)c2ccccc12 [Compound 210] ?
Resp: 40

Req: Data request, read-out Pigweed plant response rating (0 to 100 scale), for CCOc1cccc(C(=NOC)c2c(O)c(C)nn(C)c2=O)c1 [Compound 200]
Resp: 0

Req: Fill in: Pigweed plant response rating (0 to 100 scale) of CON=C(c1cccc(OC)c1)c1c(O)c(C)nn(C)c1=O [Compound 204] is ___
Resp: 0

Req: What does the record list as Pigweed plant response rating (0 to 100 scale) for CON=C(c1cc(Cl)cc(Cl)c1F)c1c(O)c(C)nn(C)c1=O [Compound 153] ?
Resp: 100

Req: Look up Pigweed plant response rating (0 to 100 scale): CO/N=C(\c1c(OC(C)=O)c(Cl)nn(C)c1=O)c1cc(Br)cc2ccccc12 [Compound 231]
Resp: 20

Req: // query Pigweed plant response rating (0 to 100 scale) value for entry C#CCO/N=C(\c1cc(Cl)cc(Cl)c1Cl)c1c(O)c(C)nn(C)c1=O [Compound 187]
Resp: 20

Req: What Pigweed plant response rating (0 to 100 scale) value was documented for this compound, C=CCO/N=C(/c1c(O)c(C)nn(C)c1=O)c1cccc2cc(Cl)ccc12 [Compound 246] ?
Resp: 70

Req: # Pigweed plant response rating (0 to 100 scale) lookup, item CON=C(c1cc(Cl)cc(Cl)c1)c1c(O)c(C)nn(C)c1=O [Compound 189]
Resp: 50

Req: Entry C#CCO/N=C(\c1cc(Cl)cc(Cl)c1Cl)c1c(O)c(C)nn(C)c1=O [Compound 184] : reported Pigweed plant response rating (0 to 100 scale) = ?
Resp: 10

====

System: ragweed (common ragweed, Ambrosia elatior)
Assay: Test A preemergence, visual plant response rating
Assay type: in vivo
Conditions: 125 g ai/ha Preemergence; approx. 10 days
readoutKind: Ragweed plant response rating (0 to 100 scale)
Give only the figure.

Examples from the recorded data:
# compound, reading
rows = [
    ("CCn1nc(C)c(O)c(C(=NOC)c2cccc(Cl)c2)c1=O (mixture of isomers) [Compound 2]", 0),
    ("CCO/N=C(\\c1cccc(C)c1C)c1c(O)c(C)nn(C)c1=O [Compound 25]", 30),
    ("CO/N=C(\\c1cccc(C)c1)c1c(O)c(C)nn(C)c1=O [Compound 13]", 30),
]

Req: Given the compound CCO/N=C(\c1ccccc1C)c1c(O)c(C)nn(C)c1=O [Compound 14] , what is its reported Ragweed plant response rating (0 to 100 scale)?
Resp: 80

====

Test system: Italian ryegrass (Lolium mutiflorum)
Experiment: Test C preemergence, visual plant response rating
Format: in vivo
Conditions: Test C, 31 g ai/ha, 0 is no effect, 100 is complete control
readoutKind: Ryegrass, Italian plant response rating (0 to 100 scale)
Form: value (number only, do not type unit).

# smilesText, reading
records = [
    ("CON=C(c1cc(Cl)cc(F)c1Cl)c1c(O)c(C)nn(C)c1=O", 90),
]

Req: Checklist item: Ryegrass, Italian plant response rating (0 to 100 scale) tested on Italian ryegrass (Lolium mutiflorum), entry CO/N=C(\c1c(O)c(C)nn(C)c1=O)c1cc(SC)cc2ccccc12 , value?
Resp: 0

Req: So what Ryegrass, Italian plant response rating (0 to 100 scale) did CCO/N=C(\c1c(O)c(Cl)nn(C)c1=O)c1ccc(F)c2ccccc12 get with Italian ryegrass (Lolium mutiflorum)?
Resp: 0

Req: Test system Italian ryegrass (Lolium mutiflorum); read-out Ryegrass, Italian plant response rating (0 to 100 scale); what value for CON=C(c1cccc(OC)c1)c1c(O)c(C)nn(C)c1=O ?
Resp: 0

Req: Find Ryegrass, Italian plant response rating (0 to 100 scale) (Italian ryegrass (Lolium mutiflorum)) for the entry C#CCO/N=C(/c1cc(Cl)cc(Br)c1)c1c(O)c(C)nn(C)c1=O
Resp: 10

Req: Param readout= Ryegrass, Italian plant response rating (0 to 100 scale); system= Italian ryegrass (Lolium mutiflorum); entry= C#CCO/N=C(/c1c(O)c(C)nn(C)c1=O)c1cccc2cc(Cl)ccc12 ; returns value.
Resp: 10
